assay: folding enthalpy; higher = less favourable; fluorescence melt of hairpins on a sequencing array, two-state fit; settings: sodium 0.088 M
measuredMetric: folding enthalpy (kcal/mol)
Field: numeric (kcal/mol). Do not append units.

Input: Any idea what its folding enthalpy is? The sequence is GTATTTGCGAAAGCATAC (((..(((....))))))
Output: -9.06

###

test: melting temperature; fluorescence melt of hairpins on a sequencing array, two-state fit, raised by 9.35 °C to match UV melts; settings: sodium 0.088 M
measuredMetric: Tm
Write the numeric value and append its unit.

Input: Any idea what its Tm is? The sequence is GCAGAGGGAAACCTCTAC (.(((((....))))).)
Output: 35.2 °C

Input: Any idea what its Tm is? The sequence is GATCACATTCGTGATC ((((((....))))))
Output: 59.4 °C

Input: Any idea what its Tm is? The sequence is GGGAGATCGAAAGATCCC (((..(((....))))))
Output: 49.8 °C

Input: Any idea what its Tm is? The sequence is GAGGATGGAAACATTCTC (((.(((....))).)))
Output: 42.6 °C

Input: Any idea what its Tm is? The sequence is ACCAGGAAACTGGT (((((....)))))
Output: 49.2 °C
